# MIC values compiled below
- Test system: E. coli ATCC 25922
- Experiment Description: MIC, agar dilution
- Format: cell-based
- Assay Conditions: E. coli ATCC 25922
Answer format: numeric, µg/mL implied, no suffix.

// known answers, use as guide
{"Molecule": "CN(C)c1cc(NC(=O)C2CCCN2C(=O)C(F)(F)F)c(O)c2c1CC1CC3[C@H](N(C)C)C(O)=C(C(N)=O)C(=O)[C@@]3(O)C(O)=C1C2=O.Cl.Cl (some centres unmarked)", "Endpoint Result": 8}
{"Molecule": "CN(C)c1cc(NC(=O)CNCCN2CCCCC2)c(O)c2c1C[C@H]1C[C@H]3[C@H](N(C)C)C(O)=C(C(N)=O)C(=O)[C@@]3(O)C(O)=C1C2=O", "Endpoint Result": 16}

Lab note: next molecule to report on.
Can you look up the measured MIC of CN(C)c1cc(NC(=O)CNOCc2ccccc2)c(O)c2c1C[C@H]1C[C@H]3[C@H](N(C)C)C(O)=C(C(N)=O)C(=O)[C@@]3(O)C(O)=C1C2=O for me?
16
